// provenance: the supplement of paper PMC7411054

- Test system: HepG2-TP53BP1-CLTA
- assay.method.text: phenotypically active (imaging signature differs from DMSO and reproducible) at any of 0.3-9 uM (binary (1 = active, 0 = inactive)); higher = active
- conditions: treatment time: 24 h
Here, each record is paired with measured phenotypically active data.
readout.name: phenotypically active

[
  {
    "compound": "CSc1ccc2c(c1)N(CCC1CCCCN1C)c1ccccc1S2 (stereo unspecified)",
    "readout.name": "phenotypically active",
    "test.value": 1
  },
  {
    "compound": "COCC(=O)O[C@]1(CCN(C)CCCc2nc3ccccc3[nH]2)CCc2cc(F)ccc2[C@@H]1C(C)C",
    "readout.name": "phenotypically active",
    "test.value": 1
  },
  {
    "compound": "C#C[C@]1(O)CC[C@H]2[C@@H]3CCC4=CCCC[C@@H]4[C@H]3C(=C)C[C@@]21CC",
    "readout.name": "phenotypically active",
    "test.value": 0
  },
  {
    "compound": "O=C(O)c1ccc(O)c2ncccc12",
    "readout.name": "phenotypically active",
    "test.value": 0
  },
  {
    "compound": "CN(C)c1nc(N(C)C)nc(N(C)C)n1",
    "readout.name": "phenotypically active",
    "test.value": 0
  },
  {
    "compound": "CCOC(=O)[C@H](CCc1ccccc1)N[C@H]1CCc2ccccc2N(CC(=O)O)C1=O",
    "readout.name": "phenotypically active",
    "test.value": 0
  }
]

---

- Tested on: WPMY1-GM130-SQSTM1
- assay.method.text: phenotypically active (imaging signature differs from DMSO and reproducible) at any of 0.3-9 uM (binary (1 = active, 0 = inactive)); higher = active
- conditions: treatment time: 24 h

[
  {
    "molecule": "CC(=O)N1CCN(c2ccc(OC[C@H]3CO[C@](Cn4ccnc4)(c4ccc(Cl)cc4Cl)O3)cc2)CC1 [Ketoconazole]",
    "phenotypically active": 1
  },
  {
    "molecule": "CC(C)(C)NC(=O)[C@@H]1CN(Cc2cccnc2)CCN1C[C@@H](O)C[C@@H](Cc1ccccc1)C(=O)N[C@H]1c2ccccc2C[C@H]1O [indinavir]",
    "phenotypically active": 0
  },
  {
    "molecule": "O=C1CCc2c(ccc3ccccc23)O1 [Splitomicin]",
    "phenotypically active": 0
  },
  {
    "molecule": "O=C(Nc1ccncc1)c1cc([N+](=O)[O-])ccc1Cl",
    "phenotypically active": 1
  },
  {
    "molecule": "NS(=O)(=O)c1cc(Cl)c(Cl)c(S(N)(=O)=O)c1 [diclofenamide]",
    "phenotypically active": 0
  },
  {
    "molecule": "CCc1cncnc1N1CCN(Cc2nc3cc(C(F)(F)F)ccc3[nH]2)CC1",
    "phenotypically active": 0
  },
  {
    "molecule": "Cc1cc(C(=O)Nc2cccc(C(=O)Nc3cccc(C(F)(F)F)c3)c2)on1",
    "phenotypically active": 0
  }
]

---

- Test system: WPMY1-GM130-SQSTM1
- assay.method.text: lowest phenotypically active concentration; higher = less potent
- conditions: treatment time: 24 h
Where a name gives a salt, the structure may show the parent alone.
readout.name: lowest phenotypically active concentration (µM)

[
  {
    "compound": "O=C(CCCCCCC(=O)Nc1ccccc1)NO",
    "inequality.operator": "=",
    "test.value": 1
  },
  {
    "compound": "Cc1cc(C(C)Nc2ccccc2)c2nc(N3CCOCC3)cc(=O)n2c1 (configuration not stated)",
    "inequality.operator": "=",
    "test.value": 9
  },
  {
    "compound": "COc1ccc(-c2cnc(-c3cccc4c3-c3ccccc3C4=O)o2)cc1",
    "inequality.operator": "≤",
    "test.value": 0.3
  },
  {
    "compound": "Cc1ccc(/C(=C/CN2CCCC2)c2cccc(/C=C/C(=O)O)n2)cc1 [acrivastine]",
    "inequality.operator": "=",
    "test.value": 1
  },
  {
    "compound": "COC(=O)C1=CO[C@@H](C)[C@H]2CN3CCc4c([nH]c5ccccc45)[C@@H]3C[C@H]12 [Ajmalicine hydrochloride]",
    "inequality.operator": "=",
    "test.value": 3
  },
  {
    "compound": "O=C(NC(NC(=S)Nc1ccc(F)c([N+](=O)[O-])c1)C(Cl)(Cl)Cl)C(c1ccccc1)c1ccccc1 (configuration not stated)",
    "inequality.operator": "=",
    "test.value": 9
  },
  {
    "compound": "COc1cc(/C=C/C(=O)N2CCC=CC2=O)cc(OC)c1OC [Piperlongumine]",
    "inequality.operator": "=",
    "test.value": 3
  }
]
